system: HDQ-P1; experiment: normalised viability (% of control), CellTiter-Blue; higher = more viable cells (about 100 = DMSO control); conditions: incubation time: 72 h
Please provide measured normalised viability for the entries that follow.
One number for each entry, in %.

These solved cases illustrate the format of a correct answer.
compound | normalised viability (%)
COc1ncc(-c2ccc3nccc(-c4ccnnc4)c3c2)cc1NS(=O)(=O)c1ccc(F)cc1F (30 nM) | 30.4
O=P(O)(NCCCl)NCCCl [Ifosfamide mustard] (300 nM) | 54
COc1cc(Nc2ncc(F)c(Nc3ccc4c(n3)NC(=O)C(C)(C)O4)n2)cc(OC)c1OC [R406] (300 nM) | 102
CS(=O)(=O)OCCCCOS(C)(=O)=O [Busulfan] (3000 nM) | 83

Okay, now this compound:
Q) // Input: COc1ccc(C2=N[C@@H](c3ccc(Cl)cc3)[C@@H](c3ccc(Cl)cc3)N2C(=O)N2CCNC(=O)C2)c(OC(C)C)c1 [Nutlin-3] (300 nM) . Output its normalised viability only.
A) 66.2

###

test system: CAL-51; test: normalised response (% of control), CellTox Green; higher = less cell death (100 = DMSO, 0 = benzethonium chloride kill control); details: incubation time: 72 h
quantity: normalised response
Put your answer as a value accompanied by its unit after it.

compound | recorded.result
CS(=O)(=O)CCNCc1ccc(-c2ccc3ncnc(Nc4ccc(OCc5cccc(F)c5)c(Cl)c4)c3c2)o1 [Lapatinib] (1000 nM) | 106%
Cc1cc(C(C)Nc2ccccc2)c2nc(N3CCOCC3)cc(=O)n2c1 (stereo not given) [TGX-221] (10000 nM) | 93.5%
CS(=O)(=O)CCNCc1ccc(-c2ccc3ncnc(Nc4ccc(OCc5cccc(F)c5)c(Cl)c4)c3c2)o1 [Lapatinib] (100 nM) | 101%
C[C@@]1(C(=O)Nc2ccc(F)nc2)CCCN1c1nc(Nc2cc(C3CC3)n[nH]2)c2cccn2n1 (10000 nM) | 18.7%
COc1ncc(-c2ccc3nccc(-c4ccnnc4)c3c2)cc1NS(=O)(=O)c1ccc(F)cc1F (10 nM) | 104%
COC(=O)C[C@](O)(CCCC(C)(C)O)C(=O)O[C@@H]1C(OC)=C[C@]23CCCN2CCc2cc4c(cc2[C@H]13)OCO4 [Omacetaxine] (10000 nM) | 94.3%

Report normalised response for each item below.
1. CN(c1ccccc1CNc1nc(Nc2ccc3c(c2)CC(=O)N3)ncc1C(F)(F)F)S(C)(=O)=O (10000 nM)
2. COC1=CC(c2cc3ccccc3[nH]2)=N/C1=C\c1[nH]c(C)cc1C [Obatoclax] (100 nM)
3. CC(C)C[C@H](NC(=O)[C@H](Cc1ccccc1)NC(=O)c1cnccn1)B(O)O [Bortezomib] (100 nM)

A)
["16.1%", "88.2%", "-29%"]

Report normalised response for each item below.
1. CCOc1cc2ncc(C#N)c(Nc3ccc(OCc4ccccn4)c(Cl)c3)c2cc1NC(=O)/C=C/CN(C)C [Neratinib] (100 nM)
2. Cn1cnc2c(F)c(Nc3ccc(Br)cc3F)c(C(=O)NOCCO)cc21 [MEK-162] (10 nM)
3. O=C(c1ccc(OCCN2CCCCC2)cc1)c1c(-c2ccc(O)cc2)sc2cc(O)ccc12 [Raloxifene] (10000 nM)
4. CCS(=O)(=O)c1cccc(-c2cc(C(=O)NC3CCN(C)CC3)c(C)c3[nH]c4ncc(C)cc4c23)c1 [TAK-901] (1000 nM)
5. FC(F)c1nc2ccccc2n1-c1nc(N2CCOCC2)nc(N2CCOCC2)n1 [ZSTK474] (100 nM)
6. COc1cc(Nc2ncc(F)c(Nc3ccc4c(n3)NC(=O)C(C)(C)O4)n2)cc(OC)c1OC [Tamatinib] (100 nM)

A)
1. 115%
2. 112%
3. 108%
4. 36.5%
5. 102%
6. 115%
